Test: Pharmacokinetic study in rat plasma after oral administration of Flos Chrysanthemi extract (UPLC-MS/MS)
Format: in vivo, Sprague-Dawley rats
Conditions: male, Sprague-Dawley, rat; rats, oral Flos Chrysanthemi extract 10 g/kg, plasma, n = 6
value_kind: Cmax (ng/mL)

# compound, value_kind, recorded_result
records = [
    ("O=C(/C=C/c1ccc(O)c(O)c1)O[C@@H]1[C@H](O)C[C@@](O)(C(=O)O)C[C@H]1OC(=O)/C=C/c1ccc(O)c(O)c1 [Isochlorogenic acid C]", "Cmax", 101),
    ("O=c1cc(-c2ccc(O)cc2)oc2cc(O)cc(O)c12 [Apigenin]", "Cmax", 302),
    ("O=c1cc(-c2ccc(O)cc2)oc2cc(O[C@@H]3O[C@H](CO)[C@@H](O)[C@H](O)[C@H]3O)cc(O)c12 [Apigenin 7-glucoside]", "Cmax", 96.4),
    ("O=c1cc(-c2ccc(O)c(O)c2)oc2cc(O)cc(O)c12 [Luteolin]", "Cmax", 2080),
]

Sourced from paper PMC7456477
